assay: Pharmacokinetics test in rats; type: in vivo, rat; details: both sexes, rat, plasma, intravenous, 10 mg/kg as free alkali, n=6, read-out: AUC AUC0-inf
Counter-ions that a name gives are not always drawn.
VALUE KIND: AUC(0-inf) (µg·h/mL)

Observe how each entry below is paired with its result.
[
  {
    "COMPOUND": "Nc1c(Br)cc(Br)cc1CNC12CC3CC(CC(O)(C3)C1)C2",
    "AUC(0-inf) / µg·h/mL": 4.47
  },
  {
    "COMPOUND": "Nc1c(Br)cc(Br)cc1CNC1C2CC3CC1CC(O)(C3)C2 (stereo not shown)",
    "AUC(0-inf) / µg·h/mL": 4.49
  }
]

P = Nc1c(Br)cc(Br)cc1CN[C@@H]1CCC[C@H]1O
Q = Nc1c(Br)cc(Br)cc1CN[C@H]1CC[C@H](O)CC1 [Ambroxol hydrochloride, reference compound]
Compare AUC(0-inf): is it lower for P or for Q ? Returns: label corresponding to the selected item.
Q
